# reported TGI; entries follow
System: M19-MEL melanoma
Assay: NCI tumour cell line growth inhibition, 48 h

Here is how some compounds turned out for TGI.
[[record]]
compound = "O=C1C(=O)N(C(=O)c2ccc(Cl)c(Cl)c2)c2ccc(Cl)cc21"
measured_target = "M19-MEL melanoma"
result = "39.9 µM"

[[record]]
compound = "COC(=O)C1=CN=C(C(=O)OC)NN1"
measured_target = "M19-MEL melanoma"
result = "> 100 µM"

[[record]]
compound = "NC(=O)N/N=C(\\C(=O)C(=O)Nc1ccc(Cl)c(C(F)(F)F)c1)c1nc2ccc(C(=O)c3ccccc3)cc2[nH]c1=O"
measured_target = "M19-MEL melanoma"
result = "> 100 µM"


query: Find the measured TGI of Cc1ccccc1NC(=O)C(=O)C(c1cnc2ccc([N+](=O)[O-])cc2n1)[N+](=O)[O-] (stereo not given) with M19-MEL melanoma as test system.
result: > 100 µM

query: Find the measured TGI of `Cc1oc2c(C)c(O)c3c(c2c1C1(C)OCCO1)C(=O)C=C(Cl)C3=O` with M19-MEL melanoma as test system.
result: > 100 µM

###

System: UO-31 renal
Test: NCI tumour cell line growth inhibition, 48 h
# reported TGI; entries follow

Here is how some compounds turned out for TGI.
[[record]]
compound = "OC(c1cccnc1)C(F)(F)c1nc2ccccc2o1 (centres undefined)"
result = "> 100 µM"

[[record]]
compound = "COC(=O)C(=O)c1c2ccccc2n2ccc3c4ccccc4[nH]c3c12"
result = "> 10 µM"

[[record]]
compound = "COC(=O)C(C)NP(=O)(OCc1ccc(Cn2cnc3c(=O)[nH]c(N)nc32)cc1)Oc1ccccc1 (centres undefined)"
result = "> 100 µM"

[[record]]
compound = "O=C(O)CC(Nc1ccccc1)C(=O)O (centres undefined)"
result = "> 100 µM"


Note: attention shifts to another entry.
query: Give TGI for the following compound: `O=C1C(=O)c2ccccc2-c2ccccc21`
result: 2.82 µM

###

Tested on: A549 NSCLC
Test: NCI tumour cell line growth inhibition, 48 h
property measured: TGI

[[record]]
molecule = "CC(=O)OCCCCn1cnc2nc(Nc3ccccc3)nc(Cl)c21"
property_measured = "TGI"
result = "> 100 µM"

[[record]]
molecule = "COc1ccc(NC(=O)C(=O)C2CNC(=O)NC2=O)c(OC)c1 (centres undefined)"
property_measured = "TGI"
result = "> 100 µM"

[[record]]
molecule = "NC(CNO)C(=O)O (centres undefined)"
property_measured = "TGI"
result = "> 100 µM"


query: Give TGI for the following molecule: O=C1c2cccnc2S(=O)N1Cc1ccccc1 (centres undefined)
result: > 100 µM

query: Give TGI for the following molecule: Nc1nc(N)c2c(n1)NC(c1ccccc1)CC(/C=C/c1ccc(Cl)cc1)=N2 (centres undefined)
result: 60.8 µM

query: Give TGI for the following molecule: Cc1ccccc1NC(=O)C(=O)C(c1cnc2ccc([N+](=O)[O-])cc2n1)[N+](=O)[O-] (centres undefined)
result: > 100 µM

query: Give TGI for the following molecule: `ClCc1ccc(-c2ccc(Cn3cnc4c(Cl)nc(Cl)nc43)cc2)cc1`
result: 3.59 µM

###

Tested on: K-562 leukemia
Experiment: NCI tumour cell line growth inhibition, 48 h
property measured: TGI

[[record]]
compound = "CCCc1cc2cc(-n3nc(C)c4c3CC(C)(C)CC4=O)cc(NC3CCC(O)CC3)c2c(=O)[nH]1 (stereo not given)"
property_measured = "TGI"
result = "> 100 µM"

[[record]]
compound = "COc1ccc(/C(C)=C(\\c2ccc(Cl)cc2)c2ccc(OCCN3CCCC3)cc2)cc1F"
property_measured = "TGI"
result = "4.54 µM"

[[record]]
compound = "CC1(C)CCC2(C(=O)OC3OC(CO)C(O)C(O)C3O)CCC3(C)C(=CCC4C5(C)CCC(OC6OC(CO)C(O)C(O)C6O)C(C)(C)C5CCC43C)C2C1 (stereo not given)"
property_measured = "TGI"
result = "> 25 µM"

[[record]]
compound = "O=S1(=O)OC(c2ccc(O)cc2)(c2ccc(O)cc2)c2ccccc21"
property_measured = "TGI"
result = "> 100 µM"


Note: attention shifts to another entry.
query: Give TGI for the following compound: COC(=O)C(C)NP(=O)(OCc1ccc(Cn2cnc3c(=O)[nH]c(N)nc32)cc1)Oc1ccccc1 (stereo not given)
result: > 100 µM

###

Tested on: UO-31 renal
Assay: NCI tumour cell line growth inhibition, 48 h; in the data active means GI50 below about 0.43 µM; inactive means the rest
Hi there, use one of these labels in your reply, thanks! 1.0 for active, 0.0 for inactive

Recorded results for 10 molecules are shown here.
[[record]]
molecule = "Cc1c2c(nn1C(=O)c1nn(-c3ccc(Cl)cc3)cc1O)-c1ccccc1CC2"
measured_target = "UO-31 renal"
classification = 1.0

[[record]]
molecule = "O=C1c2cc3c(cc2-c2c1c1ccc(Cl)cc1c(=O)n2C[C@H](O)[C@@H](O)[C@H](O)CO)OCO3"
measured_target = "UO-31 renal"
classification = 1.0

[[record]]
molecule = "CC1(C)CC(=O)C2=C(C1)NC(SSC1=C(C#N)C(c3ccc(F)cc3)C3=C(CC(C)(C)CC3=O)N1)=C(C#N)C2c1ccc(F)cc1 (centres undefined)"
measured_target = "UO-31 renal"
classification = 0.0

[[record]]
molecule = "C=C1C(=O)O[C@H]2[C@H]1CC/C(COC(=O)CCCCCCCCC(=O)OC/C1=C/CC[C@@]3(C)O[C@H]3[C@H]3OC(=O)C(=C)[C@@H]3CC1)=C\\CC[C@@]1(C)O[C@@H]21"
measured_target = "UO-31 renal"
classification = 0.0

[[record]]
molecule = "CCCCCCCC/C=C/CCCCCCCC1=NC(C)(C)CN1C(C)C"
measured_target = "UO-31 renal"
classification = 0.0

[[record]]
molecule = "O=C1OCc2c1cc(F)cc2[N+](=O)[O-]"
measured_target = "UO-31 renal"
classification = 0.0

[[record]]
molecule = "COc1cc(C#N)cc(OC)c1OCCOCCOc1c(OC)cc(C#N)cc1OC"
measured_target = "UO-31 renal"
classification = 0.0

[[record]]
molecule = "CCOC(=O)c1c(C)nc2ccc(Cl)cc2c1-c1ccccc1"
measured_target = "UO-31 renal"
classification = 0.0

[[record]]
molecule = "NC1=C(Cl)C(=O)c2ccc(S(N)(=O)=O)cc2C1=O"
measured_target = "UO-31 renal"
classification = 1.0

[[record]]
molecule = "S=c1nc2[nH]ncc2c(N/N=C/c2ccccc2)[nH]1"
measured_target = "UO-31 renal"
classification = 0.0


query: Dear colleague, could you share the recorded outcome for `O=C(O)c1ccc2c(c1Nc1ccccc1)C(=O)c1ccccc1C2=O` when you have a moment?
result: 0.0

query: Dear colleague, could you share the recorded outcome for `COc1ccc(N(CC(=O)NCCC[Te]c2ccccc2)C(=O)CCSC2=C(C)C(=O)c3ccccc3C2=O)cc1` when you have a moment?
result: 0.0

query: Dear colleague, could you share the recorded outcome for `CN[C@]12CC3(C=CC(=O)C=C3)O[C@@]1(Cc1ccc(OC)cc1)N(C)C(=O)N2` when you have a moment?
result: 0.0

query: Dear colleague, could you share the recorded outcome for COC(=O)C(C)NP(=O)(OCc1ccc(Cn2cnc3c(=O)[nH]c(N)nc32)cc1)Oc1ccccc1 (centres undefined) when you have a moment?
result: 0.0

###

Entries below carry reported GI50 on NCI-H226 lung.

Here is how some compounds turned out for GI50.
[[record]]
structure_string = "O=C(Nc1nccs1)c1cc2c(cc1Cl)Sc1nccn1S2(=O)=O"
measured_target = "NCI-H226 lung"
result = "19.6 µM"

[[record]]
structure_string = "COc1ccc(/C(C)=C(\\c2ccc(Cl)cc2)c2ccc(OCCN3CCCC3)cc2)cc1F"
measured_target = "NCI-H226 lung"
result = "4.47 µM"

[[record]]
structure_string = "Cn1cccc1-c1cc(-c2cccs2)[nH]c(=O)c1C#N"
measured_target = "NCI-H226 lung"
result = "> 100 µM"

[[record]]
structure_string = "O=C1C(=O)c2ccccc2-c2ccccc21"
measured_target = "NCI-H226 lung"
result = "1.72 µM"


query: Find the measured GI50 of `S=c1nc2[nH]ncc2c(N/N=C/c2ccccc2)[nH]1` with NCI-H226 lung as test system.
result: > 100 µM

###

Non-standard residues stand in square brackets, D forms with d. Residues, ends and D or L forms follow the SMILES beside them. ξ: configuration not given here. *: point of attachment. Boc = CC(C)(C)OC(=O)*; ξV = CC(C)C(N)C(=O)O; OBn = c1ccc(CO*)cc1
Entries below carry reported GI50 on MCF7 breast.

Here is how some compounds turned out for GI50.
[[record]]
compound = "O=C1OCc2c1cc(F)cc2[N+](=O)[O-]"
measured_target = "MCF7 breast"
result = "> 100 µM"

[[record]]
compound = "CCN(CC)CCOc1ccc(/C(=C(\\C)Cc2ccc(OC)cc2)c2ccc(OC(=O)NCc3ccccc3)cc2)cc1"
measured_target = "MCF7 breast"
result = "0.269 µM"

[[record]]
compound = "O=C(Nc1n[nH]c2nc(-c3ccco3)ccc12)C1CC1"
measured_target = "MCF7 breast"
result = "> 25 µM"

[[record]]
compound = "C/C(CC(=O)NNc1ccc([N+](=O)[O-])cc1)=N\\Nc1ccc([N+](=O)[O-])cc1"
measured_target = "MCF7 breast"
result = "12.9 µM"

[[record]]
compound = "C=C1C(=O)O[C@H]2[C@H]1CC/C(Cn1cc(Cn3ccc4ccccc43)nn1)=C\\CC[C@@]1(C)O[C@@H]21"
measured_target = "MCF7 breast"
result = "1.3 µM"

[[record]]
compound = "COc1cc(/C=C/C(=O)c2ccc(Nc3ncnc4ccccc34)cc2)cc(OC)c1"
measured_target = "MCF7 breast"
result = "1.84 µM"

[[record]]
compound = "O=C1c2cc3c(cc2-c2c1c1ccc(Cl)cc1c(=O)n2C[C@H](O)[C@@H](O)[C@H](O)CO)OCO3"
measured_target = "MCF7 breast"
result = "< 0.01 µM"

[[record]]
compound = "CN(C)CCCN(c1nc(C(Cl)(Cl)Cl)ns1)c1nc(C(Cl)(Cl)Cl)ns1"
measured_target = "MCF7 breast"
result = "1.9 µM"

[[record]]
compound = "COC(=O)C(C)NP(=O)(OCc1ccc(Cn2cnc3c(=O)[nH]c(N)nc32)cc1)Oc1ccccc1 (centres undefined)"
measured_target = "MCF7 breast"
result = "> 100 µM"

[[record]]
compound = "Cn1cccc1-c1cc(-c2cccs2)[nH]c(=O)c1C#N"
measured_target = "MCF7 breast"
result = "> 100 µM"


query: Give GI50 for the following compound: `Cc1n[nH]c(=S)n1/N=C/c1ccc(F)c(Oc2ccccc2)c1`
result: 41.4 µM

query: Give GI50 for the following compound: CC(C)C(NC(=O)OC(C)(C)C)C(=O)NCC(=O)OCc1ccccc1 (centres undefined) (Boc-[ξV]-Gly-OBn)
result: 87 µg/mL

query: Give GI50 for the following compound: `CN[C@]12CC3(C=CC(=O)C=C3)O[C@@]1(Cc1ccc(OC)cc1)N(C)C(=O)N2`
result: 0.778 µM

query: Give GI50 for the following compound: `O=C(Nc1nccs1)c1cc2c(cc1Cl)Sc1nccn1S2(=O)=O`
result: 6.72 µM

query: Give GI50 for the following compound: `COc1cc(C#N)cc(OC)c1OCCOCCOc1c(OC)cc(C#N)cc1OC`
result: 63.4 µM

query: Give GI50 for the following compound: CC1(C)CC(=O)C2=C(C1)NC(SSC1=C(C#N)C(c3ccc(F)cc3)C3=C(CC(C)(C)CC3=O)N1)=C(C#N)C2c1ccc(F)cc1 (centres undefined)
result: 32.3 µg/mL

query: Give GI50 for the following compound: `S=c1nc2[nH]ncc2c(N/N=C/c2ccccc2)[nH]1`
result: 32 µM

query: Give GI50 for the following compound: `NC1=C(Cl)C(=O)c2ccc(S(N)(=O)=O)cc2C1=O`
result: 0.15 µM

query: Give GI50 for the following compound: `CC(=O)O[C@H]1C(=O)O[C@@H]2C[C@H]3C(C)=CC(=O)[C@@H](O)[C@]3(C)[C@H]3[C@@]4(O)OC[C@]32[C@@H]1[C@@H](C)[C@H]4O`
result: < 0.01 µM
